biological target: Toll-like receptor 4 (Homo sapiens, UniProt O00206); assay: Agonist activity at TLR4 in human PBMC cells assessed as induction of TNFalpha release incubated for 20 hrs by ELISA; format: cell-based
Sequence (O00206 whole entry): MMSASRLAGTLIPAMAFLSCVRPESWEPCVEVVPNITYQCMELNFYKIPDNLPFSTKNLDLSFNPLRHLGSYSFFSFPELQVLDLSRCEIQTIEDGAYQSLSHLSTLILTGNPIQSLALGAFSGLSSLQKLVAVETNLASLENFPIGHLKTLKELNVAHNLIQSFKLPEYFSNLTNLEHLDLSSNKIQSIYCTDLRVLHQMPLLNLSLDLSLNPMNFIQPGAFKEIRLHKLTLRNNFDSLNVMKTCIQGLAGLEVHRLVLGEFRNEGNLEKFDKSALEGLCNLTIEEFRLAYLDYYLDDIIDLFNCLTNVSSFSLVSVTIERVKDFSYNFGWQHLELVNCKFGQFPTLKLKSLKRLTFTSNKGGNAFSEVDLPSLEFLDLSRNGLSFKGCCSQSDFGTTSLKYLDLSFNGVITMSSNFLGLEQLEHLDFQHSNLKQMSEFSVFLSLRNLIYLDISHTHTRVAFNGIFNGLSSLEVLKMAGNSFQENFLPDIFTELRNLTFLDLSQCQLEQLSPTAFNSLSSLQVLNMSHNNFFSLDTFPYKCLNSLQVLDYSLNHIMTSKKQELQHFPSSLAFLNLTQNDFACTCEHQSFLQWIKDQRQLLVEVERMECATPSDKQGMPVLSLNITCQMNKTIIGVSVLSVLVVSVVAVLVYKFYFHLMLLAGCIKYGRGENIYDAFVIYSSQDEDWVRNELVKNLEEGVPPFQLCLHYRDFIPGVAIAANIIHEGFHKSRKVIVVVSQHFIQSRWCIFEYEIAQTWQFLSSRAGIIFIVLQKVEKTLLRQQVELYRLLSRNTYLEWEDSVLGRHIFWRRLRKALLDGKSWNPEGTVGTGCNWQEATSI
pEC50: −log10 of the molar value.
The threshold is inclusive: pEC50 of exactly 8 counts as TRUE; values below receive FALSE.

Here are 3 compounds together with their reported answers.
Decide: pEC50 of CCCCCCCCCCC[C@H](CC(=O)N[C@H]1[C@H](OC[C@H](NC(=O)C[C@@H](CCCCCCCCCCC)OCCCCCCCCCC)C(=O)O)O[C@H](CO)[C@@H](OP(=O)(O)O)[C@@H]1OC(=O)C[C@@H](CCCCCCCCCCC)OCCCCCCCCCC)OCCCCCCCCCC >= 8?
TRUE

Reported pEC50 at or above 8? CCCCCCCCCCC[C@H](CC(=O)NCCO[C@@H]1O[C@H](CO)[C@@H](OP(=O)(O)O)[C@@H](NC(=O)C[C@@H](CCCCCCCCCCC)OC(=O)CCCCCCCCC)[C@H]1NC(=O)C[C@@H](CCCCCCCCCCC)OC(=O)CCCCCCCCC)OC(=O)CCCCCCCCC.CCN(CC)CC
FALSE

Could you verify whether the entry CCCCCCCCCCC[C@H](CC(=O)NCCO[C@@H]1O[C@H](CO)[C@@H](OP(=O)(O)O)[C@H](OC(=O)C[C@@H](CCCCCCCCCCC)OC(=O)CCCCCCCCC)[C@H]1NC(=O)C[C@@H](CCCCCCCCCCC)OC(=O)CCCCCCCCC)OC(=O)CCCCCCCCC shows pEC50 of no less than 8?
FALSE

---
Exam item: decide whether the reported pEC50 for CCCCCCCCCCC[C@H](CC(=O)N[C@H]1[C@H](OC[C@H](NC(=O)C[C@@H](CCCCCCCCCCC)OCCCCCCCCCC)C(=O)O)O[C@H](CO)[C@@H](OP(=O)(O)O)[C@H]1NC(=O)C[C@@H](CCCCCCCCCCC)OCCCCCCCCCC)OCCCCCCCCCC.CCN(CC)CC is at least 8.
TRUE

Could you tell me if the measured pEC50 of CCCCCCCCCCC[C@H](CC(=O)NCCO[C@@H]1O[C@H](CO)[C@@H](OS(=O)(=O)O)[C@@H](NC(=O)C[C@@H](CCCCCCCCCCC)OC(=O)CCCCCCCCC)[C@H]1NC(=O)C[C@@H](CCCCCCCCCCC)OC(=O)CCCCCCCCC)OC(=O)CCCCCCCCC.CCN(CC)CC reaches 8 or more?
FALSE

Does CCCCCCCCCCCCCCCC(=O)O[C@H](CCCCCCCCCCC)CC(=O)N[C@@H]1[C@@H](O)[C@H](O)[C@@H](CO[C@@H]2O[C@H](CO)[C@@H](OP(=O)(O)O)[C@H](OC(=O)C[C@@H](CCCCCCCCCCC)OC(=O)CCCCCCCCCCCCC)[C@H]2NC(=O)C[C@@H](CCCCCCCCCCC)OC(=O)CCCCCCCCCCC)O[C@@H]1O have a reported pEC50 of at least 8?
FALSE
